Protocol: NCI Yeast Anticancer Drug Screen. Data for the bub3 strain (AID 167)
Experimental context: S. cerevisiae bub3 mutant strain, at 50.0 µM, hits give high values
About 79,000 compounds went through this panel and 15% of them were active in at least one assay; those are over-represented in the sample as a whole. The source made the active and inactive calls. No stated cut-off is given here; in the data, active means growth inhibition above about 70%; inactive means the rest.
Reported growth inhibition values follow for various compounds

NC(N)=NCCCS: 4.15% (inactive)
Cc1ccc(Nc2nc3ccccc3nc2NS(=O)(=O)c2ccc(N)cc2)cc1: 7.45% (inactive)
Nc1nc2c(nc(OCc3ccccc3)n2C2OC(CO)C(O)C2O)c(=O)[nH]1 (stereo not given): 0.5% (inactive)
CC1CC=C2CCCCC2(C)C1C (stereo not given): -40.6% (inactive)
Nc1cc2c3c(cccc3c1Br)C(=O)NC2=O: 15.3% (inactive)
CN(C)C=Nc1ccn(C2CC(F)C(CO)O2)c(=O)n1 (stereo not given): 8.8% (inactive)
Cn1c(=O)c2c(ncn2Cc2ccccc2)n(C)c1=O: 45.1% (inactive)
O=c1[nH]c(-c2cccc(F)c2)nc2ccccc12: -7.4% (inactive)

Which growth inhibition value belongs to CCCCCCCCCCCCN=Cc1cc(Cc2ccc(O)c(C=NCCCCCCCCCCCC)c2)ccc1O ? 83.7% (active)

How about NC(=O)N/N=C/c1ccc(Cl)cc1Cl ? 4.8% (inactive)
